List of combination Emax values.
# Tested on: KALS-1 (Glioblastoma)
# ASSAY_NOTES: combination Emax (second highest fraction inhibited in the dose matrix, 72 h); higher = more inhibition; extreme values may be limits of the assay
Answer as a number with no unit attached.

A selection of reference data follows.
COc1nnc2ccc(N3CCC(c4ccc(OCCN5CCN(C)C(=O)[C@H]5C)cc4)CC3)nn12 [AZD5153] + Cc1c2c(nn1C)CSCc1cc(n(C)n1)CSc1cc(c3ccccc3c1)OCCCc1c(C(=O)O)n(C)c3c-2c(Cl)ccc13 [AZD5991] (first compound max 1 µM, 7x7, partner max 1 µM)    0.814
CN(CCO)CC[C@H](CSc1ccccc1)Nc1ccc(S(=O)(=O)NC(=O)c2ccc(N3CCC([C@@H](O)c4ccccc4-c4ccc(Cl)cc4)CC3)cc2)cc1S(=O)(=O)C(F)(F)F [AZD4320] + C1CN(CCC1(C(=O)N[C@@H](CCO)C2=CC=C(C=C2)Cl)N)C3=NC=NC4=C3C=CN4 [Capivasertib] (first compound max 1 µM, 7x7, partner max 3 µM)    0.485

Let us examine a further case.
Problem: Consider the molecule shown here: Cc1cc2ncnn2cc1Nc1ncc2c(n1)n(C1CCOCC1)c(=O)n2C [AZD7648] + C[C@@H]1COCCN1C2=NC(=NC(=C2)C3(CC3)[S@](=N)(=O)C)C4=C5C=CNC5=NC=C4 [AZD6738] (first compound max 10 µM, 7x7, partner max 10 µM) What is its recorded combination Emax?
Solution: 0.866

* * *

# Tested on: NCI-H1876 (Small Cell Lung Carcinoma)
# ASSAY_NOTES: Bliss excess, mean over the matrix (fraction); higher = more synergy
VALUE_KIND: Bliss excess
Answer as a number with no unit attached.

NC1(C(=O)N[C@@H](CCO)c2ccc(Cl)cc2)CCN(c2ncnc3[nH]ccc23)CC1 [Capivasertib] + Cn1cnc2c(F)c(Nc3ccc(Br)cc3Cl)c(C(=O)NOCCO)cc21 [Selumetinib] (first compound max 10 µM, 7x7, partner max 10 µM)    0.0122
CN(CCO)CC[C@H](CSc1ccccc1)Nc1ccc(S(=O)(=O)NC(=O)c2ccc(N3CCC([C@@H](O)c4ccccc4-c4ccc(Cl)cc4)CC3)cc2)cc1S(=O)(=O)C(F)(F)F [AZD4320] + CN(C)CCCOc1ccc(-c2ccc3ncc4c(c3c2)n(C2CCOCC2)c(=O)n4C)cn1 [AZD0156] (first compound max 1 µM, 7x7, partner max 1 µM)    0.0374
CC1(C)CCC(CN2CCN(c3ccc(C(=O)NS(=O)(=O)c4ccc(NCC5CCOCC5)c([N+](=O)[O-])c4)c(Oc4cnc5[nH]ccc5c4)c3)CC2)=C(c2ccc(Cl)cc2)C1 [Venetoclax] + C=CCn1c(=O)c2cnc(Nc3ccc(N4CCN(C)CC4)cc3)nc2n1-c1cccc(C(C)(C)O)n1 [AZD1775] (first compound max 1 µM, partner max 1 µM)    -0.001
Cc1cc2ncnn2cc1Nc1ncc2c(n1)n(C1CCOCC1)c(=O)n2C [AZD7648] + C[C@@H]1COCCN1C2=NC(=NC(=C2)C3(CC3)[S@](=N)(=O)C)C4=C5C=CNC5=NC=C4 [AZD6738] (first compound max 10 µM, 7x7, partner max 10 µM)    0.0004

Problem: Consider the compound shown here: COc1nnc2ccc(N3CCC(c4ccc(OCCN5CCN(C)C(=O)[C@H]5C)cc4)CC3)nn12 [AZD5153] + C[C@@H]1COCCN1C2=NC(=NC(=C2)C3(CC3)[S@](=N)(=O)C)C4=C5C=CNC5=NC=C4 [AZD6738] (first compound max 1 µM, 7x7, partner max 10 µM) What is its recorded Bliss excess?
Solution: 0.089

* * *

# System: NCI-H1341 (Small Cell Lung Carcinoma)
# ASSAY_NOTES: Bliss excess, mean over the matrix (fraction); higher = more synergy
VALUE_KIND: Bliss excess
Answer as a number with no unit attached.

A selection of reference data follows.
Cc1cc2ncnn2cc1Nc1ncc2c(n1)n(C1CCOCC1)c(=O)n2C [AZD7648] + C=CCn1c(=O)c2cnc(Nc3ccc(N4CCN(C)CC4)cc3)nc2n1-c1cccc(C(C)(C)O)n1 [AZD1775] (first compound max 10 µM, partner max 1 µM)    -0.0476
Cc1c2c(nn1C)CSCc1cc(n(C)n1)CSc1cc(c3ccccc3c1)OCCCc1c(C(=O)O)n(C)c3c-2c(Cl)ccc13 [AZD5991] + CC1(C)CCC(CN2CCN(c3ccc(C(=O)NS(=O)(=O)c4ccc(NCC5CCOCC5)c([N+](=O)[O-])c4)c(Oc4cnc5[nH]ccc5c4)c3)CC2)=C(c2ccc(Cl)cc2)C1 [Venetoclax] (first compound max 1 µM, 7x7, partner max 1 µM)    0.132
CCN(CCO)CCCOc1ccc2c(Nc3cc(CC(=O)Nc4cccc(F)c4)[nH]n3)ncnc2c1 [AZD2811] + O=C(c1cc(Cc2n[nH]c(=O)c3ccccc23)ccc1F)N1CCN(C(=O)C2CC2)CC1 [Olaparib] (first compound max 1 µM, 7x7, partner max 10 µM)    0.0125
CC(=O)c1c(C)c2cnc(Nc3ccc(N4CCNCC4)cn3)nc2n(C2CCCC2)c1=O [Palbociclib] + Cc1c2c(nn1C)CSCc1cc(n(C)n1)CSc1cc(c3ccccc3c1)OCCCc1c(C(=O)O)n(C)c3c-2c(Cl)ccc13 [AZD5991] (first compound max 10 µM, 7x7, partner max 1 µM)    -0.031
CC1(C)CCC(CN2CCN(c3ccc(C(=O)NS(=O)(=O)c4ccc(NCC5CCOCC5)c([N+](=O)[O-])c4)c(Oc4cnc5[nH]ccc5c4)c3)CC2)=C(c2ccc(Cl)cc2)C1 [Venetoclax] + Cn1cnc2c(F)c(Nc3ccc(Br)cc3Cl)c(C(=O)NOCCO)cc21 [Selumetinib] (first compound max 1 µM, 7x7, partner max 3 µM)    0.0847

Problem: Consider the compound shown here: COc1nnc2ccc(N3CCC(c4ccc(OCCN5CCN(C)C(=O)[C@H]5C)cc4)CC3)nn12 [AZD5153] + Cc1c2c(nn1C)CSCc1cc(n(C)n1)CSc1cc(c3ccccc3c1)OCCCc1c(C(=O)O)n(C)c3c-2c(Cl)ccc13 [AZD5991] (first compound max 1 µM, 7x7, partner max 1 µM) What is its recorded Bliss excess?
Solution: 0.0366

Problem: Consider the compound shown here: COc1cccc(OCCCN)c1-c1cc(Nc2cnc(C#N)cn2)n[nH]1 [Prexasertib] + Cc1cc2ncnn2cc1Nc1ncc2c(n1)n(C1CCOCC1)c(=O)n2C [AZD7648] (first compound max 1 µM, 7x7, partner max 10 µM) What is its recorded Bliss excess?
Solution: 0.0194

* * *

# Tested on: RCC-JW (Kidney Carcinoma)
# ASSAY_NOTES: combination Emax (second highest fraction inhibited in the dose matrix, 72 h); higher = more inhibition; extreme values may be limits of the assay
VALUE_KIND: combination Emax
Answer as a number with no unit attached.

A selection of reference data follows.
Cc1c2c(nn1C)CSCc1cc(n(C)n1)CSc1cc(c3ccccc3c1)OCCCc1c(C(=O)O)n(C)c3c-2c(Cl)ccc13 [AZD5991] + Cc1cc2ncnn2cc1Nc1ncc2c(n1)n(C1CCOCC1)c(=O)n2C [AZD7648] (first compound max 1 µM, 7x7, partner max 10 µM)    0.319
Cc1nc(Nc2ncc(C(=O)Nc3c(C)cccc3Cl)s2)cc(N2CCN(CCO)CC2)n1 [Dasatinib] + CC(=O)Nc1cccc(-n2c(=O)n(C3CC3)c(=O)c3c(Nc4ccc(I)cc4F)n(C)c(=O)c(C)c32)c1 [Trametinib] (first compound max 2 µM, 7x7, partner max 1 µM)    0.859

Let us examine a further case.
Problem: Consider the molecule shown here: Cc1c2c(nn1C)CSCc1cc(n(C)n1)CSc1cc(c3ccccc3c1)OCCCc1c(C(=O)O)n(C)c3c-2c(Cl)ccc13 [AZD5991] + CCN(CCO)CCCOc1ccc2c(Nc3cc(CC(=O)Nc4cccc(F)c4)[nH]n3)ncnc2c1 [AZD2811] (first compound max 1 µM, 7x7, partner max 1 µM) What is its recorded combination Emax?
Solution: 0.251

* * *

# System: LCLC-103H (Non-Small Cell Lung Carcinoma)
# ASSAY_NOTES: combination Emax (second highest fraction inhibited in the dose matrix, 72 h); higher = more inhibition; extreme values may be limits of the assay
VALUE_KIND: combination Emax
Answer as a number with no unit attached.

O=C(c1cc(Cc2n[nH]c(=O)c3ccccc23)ccc1F)N1CCN(C(=O)C2CC2)CC1 [Olaparib] + CC1(C)CCC(CN2CCN(c3ccc(C(=O)NS(=O)(=O)c4ccc(NCC5CCOCC5)c([N+](=O)[O-])c4)c(Oc4cnc5[nH]ccc5c4)c3)CC2)=C(c2ccc(Cl)cc2)C1 [Venetoclax] (first compound max 10 µM, 7x7, partner max 1 µM)    0.155

Let us examine a further case.
Problem: Consider the compound shown here: NC1(C(=O)N[C@@H](CCO)c2ccc(Cl)cc2)CCN(c2ncnc3[nH]ccc23)CC1 [Capivasertib] + CC(=O)c1c(C)c2cnc(Nc3ccc(N4CCNCC4)cn3)nc2n(C2CCCC2)c1=O [Palbociclib] (first compound max 10 µM, 7x7, partner max 10 µM) What is its recorded combination Emax?
Solution: 0.448
